- assay-name: in vivo
- experimental-context: mouse, iv
result-type: LD50 at 168 h (mg/kg)

>  <molecule>
COc1ccc(N2CC(=O)N(CCNCC(O)COc3ccccc3C#N)C2=O)cc1.Cl (centres unmarked)

>  <numeric-result>
135

$$$$
>  <molecule>
O=C1CN(c2ccccc2)C(=O)N1CCNCC(O)COc1ccccc1Cl (centres unmarked)

>  <numeric-result>
80

$$$$
>  <molecule>
COc1ccc(N2CC(=O)N(CCNCC(O)COc3cccc(C)c3)C2=O)cc1OC (centres unmarked)

>  <numeric-result>
111

$$$$
>  <molecule>
COc1ccc(N2CC(=O)N(CCNCC(O)COc3ccccc3)C2=O)cc1OC (centres unmarked)

>  <numeric-result>
126

$$$$
>  <molecule>
COCCc1ccc(OCC(O)CNC(C)C)cc1 (centres unmarked) [Metoprolol, metoprolol, reference compound]

>  <numeric-result>
103

$$$$
>  <molecule>
Cc1ccccc1OCC(O)CNCCN1C(=O)CN(c2ccccc2)C1=O (centres unmarked)

>  <numeric-result>
60

$$$$
>  <molecule>
Cl.N#Cc1ccccc1OCC(O)CNCCN1C(=O)CN(c2ccc3c(c2)OCO3)C1=O (centres unmarked)

>  <numeric-result>
132

$$$$
>  <molecule>
N#Cc1ccccc1OCC(O)CNCCN1C(=O)CN(c2ccc(Cl)cc2)C1=O (centres unmarked)

>  <numeric-result>
70

$$$$

Hello, the source for this data is patent US4579861A, in case you need it.
